# subject.of.test: mouse 5-HT2A (m5-HT2A) (Mus musculus, UniProt P35363)
# Sequence (P35363 whole entry): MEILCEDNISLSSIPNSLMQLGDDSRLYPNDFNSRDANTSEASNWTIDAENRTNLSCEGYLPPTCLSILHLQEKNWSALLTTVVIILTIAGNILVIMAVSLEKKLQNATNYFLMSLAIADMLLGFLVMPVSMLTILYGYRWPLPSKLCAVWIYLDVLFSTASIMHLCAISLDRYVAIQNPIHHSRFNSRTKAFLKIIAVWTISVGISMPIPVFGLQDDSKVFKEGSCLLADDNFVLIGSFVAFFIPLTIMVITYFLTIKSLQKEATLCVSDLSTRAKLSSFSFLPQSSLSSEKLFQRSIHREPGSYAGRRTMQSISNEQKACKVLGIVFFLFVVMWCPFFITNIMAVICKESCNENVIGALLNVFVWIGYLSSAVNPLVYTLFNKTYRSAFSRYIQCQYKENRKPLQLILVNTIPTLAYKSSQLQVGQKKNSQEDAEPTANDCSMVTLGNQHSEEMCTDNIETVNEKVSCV
# experimental.details: Gq-mediated calcium flux in Flp-In T-REx 293 cells
# Assay type: cell-based
# measurement.conditions: Ca^2+ flux
quantity.name: EC50
// unit must come after the numeric part

GET /values?readout=EC50&item= CCN(CC)C(=O)[C@@H]1C=C2c3cccc4[nH]cc(c34)C[C@H]2N(C)C1 [LSD, D-lysergic acid diethylamide, reference compound]
4.25 nM

----------
Collected pKi values appear next to each entry.
# subject.of.test: human 5-HT2C receptor (Homo sapiens, UniProt P28335)
# Sequence (P28335 33-458): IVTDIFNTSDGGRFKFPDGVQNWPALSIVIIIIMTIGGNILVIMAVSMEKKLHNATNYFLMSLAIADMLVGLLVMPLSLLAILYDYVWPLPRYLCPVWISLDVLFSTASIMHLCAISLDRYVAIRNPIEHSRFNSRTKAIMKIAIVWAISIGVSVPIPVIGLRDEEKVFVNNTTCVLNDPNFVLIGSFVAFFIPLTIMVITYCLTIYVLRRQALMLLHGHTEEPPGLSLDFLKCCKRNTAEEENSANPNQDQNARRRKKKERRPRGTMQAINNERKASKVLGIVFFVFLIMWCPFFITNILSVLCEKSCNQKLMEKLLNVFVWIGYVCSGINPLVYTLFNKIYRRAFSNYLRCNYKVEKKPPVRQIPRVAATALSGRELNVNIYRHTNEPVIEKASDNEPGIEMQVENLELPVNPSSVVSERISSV
Please note pKi is a logarithmic value: minus log10 of concentration in mol/L. Answer with that number alone.

Below: 2 molecules and their reported pKi.
molecule	pKi
CCN(CC)C(=O)[C@@H]1C=C2c3cccc4c3c(cn4C(C)=O)C[C@H]2N(C)C1 [ALD-52, 1-Acetyl-D-lysergic acid diethylamide]	7.99
CCCC(=O)n1cc2c3c(cccc31)C1=C[C@@H](C(=O)N(CC)CC)CN(C)[C@@H]1C2 [1B-LSD, 1-butanoyl-D-lysergic acid diethylamide]	7.68

Param item = CCC(=O)n1cc2c3c(cccc31)C1=C[C@@H](C(=O)N(CC)CC)CN(C)[C@@H]1C2 [1P-LSD, 1-propanoyl-D-lysergic acid diethylamide] ; retrieve measured pKi.
7.89
